Values from PubChem BioAssay AID1963972

# Test system: 945468-187-T-J2-PDC spheroids viability;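 note: spheroids exposed to compounds for seven days before reading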
# Assay Notes: Anticancer human tumor 945468-187-T-J2-PDC patient-derived rectal carcinoma cell line growth inhibition [PI3K]
# Cond: second compound 0.1 µM; first compound 1 µM; hits give low values; spheroids with HUVEC and MSC
Measurement Name: viability, T/C

* C=CC(=O)N1CCN(c2nc(=O)n(-c3c(C)ccnc3C(C)C)c3nc(-c4c(O)cccc4F)c(F)cc23)C(C)C1 (stereo unspecified) + CC(Nc1ncnc2nc[nH]c12)c1cc2cccc(Cl)c2c(=O)n1-c1ccccc1 | 85.2%
* CCCS(=O)(=O)Nc1ccc(F)c(C(=O)c2c[nH]c3ncc(-c4ccc(Cl)cc4)cc23)c1F + CC(Nc1ncnc2nc[nH]c12)c1cc2cccc(Cl)c2c(=O)n1-c1ccccc1 | 93.8%
* CC1(C)CCC(CN2CCN(c3ccc(C(=O)NS(=O)(=O)c4ccc(NCC5CCOCC5)c([N+](=O)[O-])c4)c(Oc4cnc5[nH]ccc5c4)c3)CC2)=C(c2ccc(Cl)cc2)C1 + CC(Nc1ncnc2nc[nH]c12)c1cc2cccc(Cl)c2c(=O)n1-c1ccccc1 | 78.6%
* CCN1CCN(Cc2ccc(Nc3ncc(F)c(-c4cc(F)c5nc(C)n(C(C)C)c5c4)n3)nc2)CC1 + COc1c(OCCCN2CCOCC2)ccc2c3n(c(=NC(=O)c4cnc(N)nc4)nc12)CCN3 | 22.1%
* CC1(C)CCC(Nc2ncc(C(F)(F)F)c(-c3c[nH]c4c(P(C)(C)=O)c(C#N)ccc34)n2)CN1 (stereo unspecified) + CC(Nc1ccc2c(c1)OCCn1cc(N3C(=O)OCC3C(F)F)nc1-2)C(N)=O | 48.5%
* C#Cc1c(F)ccc2cc(O)cc(-c3ncc4c(N5CC6CCC(C5)N6)nc(OCC56CCCN5CC(F)C6)nc4c3F)c12 (stereo unspecified) + CC(Nc1ncnc2nc[nH]c12)c1cc2cccc(Cl)c2c(=O)n1-c1ccccc1 | 134%
